# Test system: KP-3 (Pancreatic Carcinoma);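 note: after 72 h of two-drug dosing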
# ASSAY: Bliss excess, mean over the matrix (fraction); higher = more synergy
METRIC: Bliss excess
Give the figure by itself; no unit, no explanation.

Input line: I'd like to know its Bliss excess. The compound in question is Cc1c2c(nn1C)CSCc1cc(n(C)n1)CSc1cc(c3ccccc3c1)OCCCc1c(C(=O)O)n(C)c3c-2c(Cl)ccc13 [AZD5991] + C1CN(CCC1(C(=O)N[C@@H](CCO)C2=CC=C(C=C2)Cl)N)C3=NC=NC4=C3C=CN4 [Capivasertib] (first compound max 1 µM, 7x7, partner max 3 µM)
Output line: -0.0102

Input line: I'd like to know its Bliss excess. The compound in question is C[C@@H](c1ccc2nccn2c1)n1nnc2ncc(-c3cnn(C)c3)nc21 [Savolitinib] + CC1(C)CCC(CN2CCN(c3ccc(C(=O)NS(=O)(=O)c4ccc(NCC5CCOCC5)c([N+](=O)[O-])c4)c(Oc4cnc5[nH]ccc5c4)c3)CC2)=C(c2ccc(Cl)cc2)C1 [Venetoclax] (first compound max 1 µM, 7x7, partner max 1 µM)
Output line: -0.0762

Input line: I'd like to know its Bliss excess. The compound in question is C=CCn1c(=O)c2cnc(Nc3ccc(N4CCN(C)CC4)cc3)nc2n1-c1cccc(C(C)(C)O)n1 [AZD1775] + C1CN(CCC1(C(=O)N[C@@H](CCO)C2=CC=C(C=C2)Cl)N)C3=NC=NC4=C3C=CN4 [Capivasertib] (first compound max 3 µM, partner max 3 µM)
Output line: 0.0131

Input line: I'd like to know its Bliss excess. The compound in question is CN(C)CCCOc1ccc(-c2ccc3ncc4c(c3c2)n(C2CCOCC2)c(=O)n4C)cn1 [AZD0156] + C=CCn1c(=O)c2cnc(Nc3ccc(N4CCN(C)CC4)cc3)nc2n1-c1cccc(C(C)(C)O)n1 [AZD1775] (first compound max 1 µM, partner max 1 µM)
Output line: -0.0212
